Where these numbers come from: PubChem BioAssay (NCI)

Test system: HOP-62 NSCLC
Assay: NCI tumour cell line growth inhibition, 48 h; in the data active = GI50 below about 0.43 µM; inactive = the rest
Entry note: the call must match one of active, inactive

Hi, sorry to bother you, what did the test record for `C=CC(=O)Nc1cc(N2CCN(CC)CC2)ccc1Nc1cc(N(C)C(=O)Nc2c(Cl)c(OC)cc(OC)c2Cl)ncn1` ? inactive

Can you look up the reported call for `C1=C2CCCC3=Cc4ccccc4OC23Oc2ccccc21` for me? inactive

GET /call?item= COc1ccc(C(O)c2cc3c(N)c(C(=O)Nc4cccc(Cl)c4)sc3nc2C)cc1 (centres undefined) returns the recorded outcome of this test. inactive

Answer briefly: the call reported for `Cc1nc(Nc2ccccn2)sc1C(=O)/C=C/c1ccc(Cl)cc1` in this assay. inactive

Would you mind telling me which call this test gave `CC1=C2C(=CO[C@H](C)[C@H]2C)C(=O)C(C(=O)O)=C1O` ? inactive

Kindly provide the recorded test outcome for the following molecule: `C1CC[N-]CC1.CC(=N\O)/C(C)=N/O.CC(=N\O)/C(C)=N/O.OC1[CH-]CCCC1.[Co+2]` inactive

In this assay, the call recorded for `Cc1nc2ccc(NC(=O)CCNC(=O)CCCc3ccc(CC(C(=O)O)C(=O)O)cc3)cc2s1` was what? inactive

Look up the recorded call for `O=C(Oc1ccc(CO[N+](=O)[O-])cc1)c1ccccc1` in this test. active

Please share the test call associated with `COc1ccc2[nH]c(O)c(/C=c3/cc4c(c(-c5ccc(F)c(OC)c5)n3)=Nc3ccccc3-4)c2c1` . inactive

Could you please tell me the result logged for `CCN(c1cc(-c2ccc(CN3CCOCC3)cc2)cc(C(=O)NCc2c(C)cc(C)[nH]c2=O)c1C)C1CCOCC1` in this assay? inactive

Dear colleague, could you share the recorded outcome for O=P1(S)OC[C@H]2O[C@@H]3[C@H](F)[C@@H]2OP(O)(=S)OC[C@H]2O[C@H]([C@H](F)[C@@H]2O1)n1cnc2c(ncnc21)NC/C=C/CNc1ncnc2c1ncn23 (some centres undefined) when you have a moment? inactive

Look up the recorded call for O=c1/c(=C\c2ccc(F)cc2)sc2n1C(c1ccc(F)cc1)C1=C(N=2)c2ccc3ccccc3c2OCC1 (centres undefined) in this test. inactive

Look up the recorded call for `Cc1c(-c2ccnc(N)n2)c2c(n1Cc1ccccc1)C(=O)c1ccccc1C2=O` in this test. inactive

For C=C1CCC2(C#N)[C@H]3[C@H](CC[C@@H]2C)[C@@H](C)C[C@@H](CC(C)(C)NC(=O)CN2CCC2=O)[C@H]13 (some centres undefined) , what call appears in the results of this test? inactive
